Source listed as patent US6737383B1.

system: rice; experiment: Test B flood test rice; format: in vivo, Oryza sativa; settings: Rate 500 g/ha; Pre-emergence; flood test species; scale 0 to 10 (0 no effect, 10 complete control)

[
  {
    "molecule": "CC(C)n1c(=O)on(C(=O)N(c2ccc(Cl)cc2Cl)C2CCC2)c1=O [Compound 319]",
    "target-or-system": "rice",
    "Rice plant response rating": 0
  },
  {
    "molecule": "Cc1ccc(N(C(=O)n2oc(=O)n(-c3ccc4ccccc4c3)c2=O)C(C)C)cc1 [Compound 334]",
    "target-or-system": "rice",
    "Rice plant response rating": 0
  },
  {
    "molecule": "CC(C)N(C(=O)n1oc(=O)n(CC(C)(C)C)c1=O)c1ccc(F)cc1F [Compound 277]",
    "target-or-system": "rice",
    "Rice plant response rating": 2
  },
  {
    "molecule": "CCOC(=O)C(C)N(C(=O)n1oc(=O)n(C2CCCCC2)c1=O)c1ccc(F)cc1 (centres unmarked) [Compound 280]",
    "target-or-system": "rice",
    "Rice plant response rating": 0
  },
  {
    "molecule": "CC1CC1n1c(=O)on(C(=O)N(c2ccc(Cl)cc2)C(C)C)c1=O (centres unmarked) [Compound 369]",
    "target-or-system": "rice",
    "Rice plant response rating": 0
  }
]

====

test system: blackgrass; assay: Test B pre/postemergence blackgrass; assay type: in vivo, Alopecurus myosuroides; settings: Preemergence, Rate 62 g/ha; scale 0 to 10 (0 no effect, 10 complete control)
Parameter Blackgrass plant response rating: see the listing below.

[
  {
    "compound": "CC(C)N(C(=O)n1oc(=O)n(CCCC(F)(F)F)c1=O)c1ccccc1 [Compound 585]",
    "target-or-system": "blackgrass",
    "Blackgrass plant response rating": 3
  },
  {
    "compound": "CC(C)N(C(=O)n1oc(=O)n(C(C)C)c1=O)c1ccc(F)cc1 [Compound 131]",
    "target-or-system": "blackgrass",
    "Blackgrass plant response rating": 10
  },
  {
    "compound": "CC(C)N(C(=O)n1oc(=O)n(CNC(=O)c2ccccc2)c1=O)c1ccccc1 [Compound 620]",
    "target-or-system": "blackgrass",
    "Blackgrass plant response rating": 0
  },
  {
    "compound": "CCN(CC)C(=O)Cn1c(=O)on(C(=O)N(c2ccccc2)C(C)C)c1=O [Compound 571]",
    "target-or-system": "blackgrass",
    "Blackgrass plant response rating": 0
  }
]

====

Parameter Giant foxtail plant response rating: see the listing below.
tested on: giant foxtail; test: Test B pre/postemergence giant foxtail; assay type: in vivo, Setaria faberii; details: Rate 125 g/ha; Postemergence; scale 0 to 10, 0 no effect, 10 complete control
endpoint-label: Giant foxtail plant response rating

[
  {
    "smiles-entry": "Cc1cccc(Cl)c1-n1c(=O)on(C(=O)N(c2ccc(F)cc2)C(C)C)c1=O",
    "target-or-system": "giant foxtail",
    "endpoint-label": "Giant foxtail plant response rating",
    "meas-value": 3
  },
  {
    "smiles-entry": "Cc1c(Cl)cccc1-n1c(=O)on(C(=O)N(c2ccc(F)cc2)C(C)C)c1=O",
    "target-or-system": "giant foxtail",
    "endpoint-label": "Giant foxtail plant response rating",
    "meas-value": 0
  },
  {
    "smiles-entry": "Cc1cccc(Cl)c1-n1c(=O)on(C(=O)N(c2ccc(Cl)cc2)C(C)C)c1=O",
    "target-or-system": "giant foxtail",
    "endpoint-label": "Giant foxtail plant response rating",
    "meas-value": 3
  },
  {
    "smiles-entry": "COc1cccc(C)c1-n1c(=O)on(C(=O)N(c2ccc(F)cc2F)C(C)C)c1=O",
    "target-or-system": "giant foxtail",
    "endpoint-label": "Giant foxtail plant response rating",
    "meas-value": 0
  },
  {
    "smiles-entry": "CCc1cccc(C)c1-n1c(=O)on(C(=O)N(c2ccc(F)cc2)C(C)C)c1=O",
    "target-or-system": "giant foxtail",
    "endpoint-label": "Giant foxtail plant response rating",
    "meas-value": 3
  }
]
